# Tested on: T1, biotinylated CD3 epsilon:delta heterodimer protein (Amsbio AMS.CDD-H52WO) (Homo sapiens (Human), UniProt P07766 23-126; P04234 22-105)
# T1 construct: also called CD3 heterodimer
# Measurement description: BLI (Octet), CD3 on SA sensor, Fab analyte;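 also: biolayer interferometry with biotinylated CD3 epsilon:delta captured on streptavidin sensors, Fab analyte at several concentrations up to 300 nM, 100 s association then 300 s dissociation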
Measured property: kon (M⁻¹ s⁻¹)
Answer with a number only, understood to be in M⁻¹ s⁻¹.

Q) Entry huSP34.5.2 Fab-HF (Fab, V domains shown, also called HC5+LC2) VH: EVQLVESGGGLVQPGGSLRLSCAASGFTFSTYAMNWVRQAPGKGLEWVGRIRSKYNNYATYYADSVKGRFTISRDNSKNTLYLQMNSLRAEDTAVYYCVRHGNFGHSYVSWFAVWGQGTLVTVSS VL: QAVVTQEPSLTVSPGGTVTLTCGSSTGAVTTSNYANWVQQKPGQAPRGLIGGTSNRAPWTPARFSGSLLGGKAALTLSGAQPEDEAEYYCALWYSNLWVFGGGTKLTVL needs its kon filled in; supply it.
A) 90800

Q) Entry huSP34.3.2 Fab-HF (Fab, V domains shown, also called HC3+LC2) VH: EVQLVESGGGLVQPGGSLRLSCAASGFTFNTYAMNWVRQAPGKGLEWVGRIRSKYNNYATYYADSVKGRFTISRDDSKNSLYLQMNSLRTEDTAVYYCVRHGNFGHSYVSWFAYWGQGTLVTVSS VL: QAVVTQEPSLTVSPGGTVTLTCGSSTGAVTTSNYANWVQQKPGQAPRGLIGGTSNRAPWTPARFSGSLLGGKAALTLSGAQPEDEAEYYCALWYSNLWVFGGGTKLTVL needs its kon filled in; supply it.
A) 381000

Attention now turns to another entry.
Q) Entry huSP34.6.6 Fab-HF (Fab, V domains shown, also called HC6+LC6) VH: EVQLVESGGGLVQPGGSLRLSCAASGFTFSTYAMNWVRQAPGKGLEWVGRIRSKYNNYATYYADSVKGRFTISRDNSKNTLYLQMNSLRAEDTAMYYCVRHGNFGNSYVSWFAVWGQGTLVTVSS VL: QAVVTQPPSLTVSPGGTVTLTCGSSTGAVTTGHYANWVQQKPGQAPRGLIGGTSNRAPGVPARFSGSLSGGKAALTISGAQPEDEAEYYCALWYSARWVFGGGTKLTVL needs its kon filled in; supply it.
A) 464000
